Ref: patent US12441726B2

target: BRG-1 (Homo sapiens); assay: ATPase catalytic activity assay (ADP-Glo), BRG-1; conditions: 1 h, read-out: BRG1 Max % Inhibition, ADP-Glo, 30 nM BRG-1, 400 μM ATP
READOUT_KIND: Emax (%)

| STRUCTURE_SMILES_STRING | UNIT_ABBREVIATION | MEAS_VALUE |
| --- | --- | --- |
| C[C@@]1(C#N)COCc2ccc(C(=O)NCc3cc4nc(-c5ccnc(N6CC7CC(C6)O7)n5)ccc4cn3)cc21 | % | 93 |
| C[C@@]1(C#N)COCc2ccc(C(=O)NCc3cc4nc(-c5cc(F)c(=O)n(C(F)F)c5)ccc4cn3)cc21 | % | 50 |
| C[C@@]1(C#N)COCc2ccc(C(=O)NCc3cc(C4CN(c5ccccc5)C4)ccn3)cc21 | % | 35 |
| COc1nn(C)cc1-c1ccc2nnc(CNC(=O)c3ccc4c(c3)[C@](C)(F)COC4)cc2n1 | % | 77 |
| COc1nn([C@H]2C[C@H](F)C2)cc1-c1ccc2cnc(CNC(=O)c3ccc4c(c3)[C@](C)(C#N)COC4)cc2n1 | % | 87 |
| Cc1cc2c(-c3ccc4cnc(CNC(=O)c5ccc6c(c5)[C@](C)(C#N)COC6)cc4n3)ccc(F)c2n1C | % | 98 |
| COC(=O)c1cccc(/C=C/c2ccnc(CNC(=O)c3ccc4c(c3)[C@](C)(C#N)COC4)c2)c1 | % | 90 |
| C[C@@]1(C#N)COCc2ccc(C(=O)NCc3cc4nc(-c5cccc(C6(C(F)F)COC6)c5)ccc4cn3)cc21 | % | 60 |
| C[C@@]1(C#N)COCc2ccc(C(=O)NCc3ncc4ccc(-c5cncc(C6CC6)n5)cc4n3)cc21 | % | 85 |
| COc1cnccc1-c1ccc2cnc(CNC(=O)c3ccc4c(c3)[C@](C)(C#N)COC4)cc2n1 | % | 77 |
| C[C@@]1(C#N)COCc2ncc(C(=O)NCc3cc4nc(-c5cccc(C(F)F)c5)ccc4cn3)cc21 | % | 83 |
| C[C@@]1(C#N)COCc2ccc(C(=O)NCc3cc4nc(-c5ccn6nccc6n5)ccc4cn3)cc21 | % | 84 |
| CN(C)c1cccc(-c2ccc3cnc(CNC(=O)c4cnc5c(c4)[C@@](F)(C(F)F)COC5)cc3n2)n1 | % | 94 |
| C[C@@]1(C#N)COCc2ccc(C(=O)NCc3cc4nc(-c5cccc(N6CCCC6)n5)ccc4cn3)cc21 | % | 98 |

###

Let's look at some compounds and their measured IC50.
target: BRG-1 (Homo sapiens, UniProt P51532); assay: ATPase catalytic activity assay (ADP-Glo), BRG-1
Sequence (P51532 whole entry): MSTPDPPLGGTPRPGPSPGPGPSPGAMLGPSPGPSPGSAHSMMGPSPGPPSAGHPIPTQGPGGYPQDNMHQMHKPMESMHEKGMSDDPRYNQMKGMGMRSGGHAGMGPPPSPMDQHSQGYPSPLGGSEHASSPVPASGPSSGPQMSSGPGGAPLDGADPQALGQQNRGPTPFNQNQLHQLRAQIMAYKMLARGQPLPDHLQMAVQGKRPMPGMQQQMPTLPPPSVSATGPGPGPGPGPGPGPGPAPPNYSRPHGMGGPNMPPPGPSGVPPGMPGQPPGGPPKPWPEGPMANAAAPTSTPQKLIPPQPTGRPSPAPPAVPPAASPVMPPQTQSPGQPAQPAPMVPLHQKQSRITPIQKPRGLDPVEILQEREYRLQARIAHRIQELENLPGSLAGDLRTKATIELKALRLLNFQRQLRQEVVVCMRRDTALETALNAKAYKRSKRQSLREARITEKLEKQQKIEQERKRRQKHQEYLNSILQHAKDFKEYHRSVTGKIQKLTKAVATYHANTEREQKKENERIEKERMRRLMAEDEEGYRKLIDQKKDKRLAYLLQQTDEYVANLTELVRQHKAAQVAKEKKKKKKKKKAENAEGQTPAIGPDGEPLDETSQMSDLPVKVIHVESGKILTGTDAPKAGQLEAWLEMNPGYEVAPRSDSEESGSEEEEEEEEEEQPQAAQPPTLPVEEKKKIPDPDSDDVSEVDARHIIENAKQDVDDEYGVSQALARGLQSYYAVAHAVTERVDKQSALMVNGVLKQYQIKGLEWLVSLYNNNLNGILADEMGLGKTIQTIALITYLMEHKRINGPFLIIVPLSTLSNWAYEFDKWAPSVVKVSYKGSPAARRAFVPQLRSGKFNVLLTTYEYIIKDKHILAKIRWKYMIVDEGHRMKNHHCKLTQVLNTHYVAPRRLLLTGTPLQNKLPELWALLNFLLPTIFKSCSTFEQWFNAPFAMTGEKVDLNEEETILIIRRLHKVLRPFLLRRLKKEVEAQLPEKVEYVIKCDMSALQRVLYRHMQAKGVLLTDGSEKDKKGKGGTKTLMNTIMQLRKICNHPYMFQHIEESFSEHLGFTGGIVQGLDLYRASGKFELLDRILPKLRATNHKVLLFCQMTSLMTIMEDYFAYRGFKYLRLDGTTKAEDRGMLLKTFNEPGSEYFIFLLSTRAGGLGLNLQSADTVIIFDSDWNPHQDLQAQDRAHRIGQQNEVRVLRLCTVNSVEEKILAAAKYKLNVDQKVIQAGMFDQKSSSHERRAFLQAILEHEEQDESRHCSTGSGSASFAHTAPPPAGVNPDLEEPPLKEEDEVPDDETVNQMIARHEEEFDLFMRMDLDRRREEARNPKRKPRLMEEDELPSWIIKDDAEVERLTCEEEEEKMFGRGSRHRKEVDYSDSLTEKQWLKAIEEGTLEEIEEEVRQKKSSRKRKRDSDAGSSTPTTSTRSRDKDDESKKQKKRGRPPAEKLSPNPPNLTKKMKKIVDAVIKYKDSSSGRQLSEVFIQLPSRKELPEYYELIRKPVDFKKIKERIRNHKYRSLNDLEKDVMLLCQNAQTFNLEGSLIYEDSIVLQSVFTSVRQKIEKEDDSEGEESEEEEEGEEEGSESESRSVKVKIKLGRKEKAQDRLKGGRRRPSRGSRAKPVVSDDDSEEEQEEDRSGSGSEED
READOUT_KIND: IC50

| STRUCTURE_SMILES_STRING | MEAS_VALUE |
| --- | --- |
| C[C@@]1(C#N)COCc2ccc(C(=O)NCc3nccc(N4CCc5ccccc5C4)c3F)cc21 | 500 to 1000 nM |
| C[C@@]1(F)COCc2ccc(C(=O)NCc3cc4nc(-c5cncc(N6CCC6)n5)ccc4cn3)cc21 | 100 to 500 nM |
| COc1cc(C2CCC2)ccc1-c1ccc2cnc(CNC(=O)c3ccc4c(c3)[C@](C)(C#N)COC4)cc2n1 | 500 to 1000 nM |
| C[C@@]1(C#N)COCc2ccc(C(=O)NCc3cc4cc(-c5ccnc(N6CCC6)n5)cnc4cn3)cc21 | 500 to 1000 nM |
| C[C@@]1(C#N)COCc2ccc(C(=O)NCc3cc4nc(-c5cccc(N6CCC6=O)c5)ccc4cn3)cc21 | < 100 nM |
| C[C@@]1(F)COCc2ccc(C(=O)NCc3cc4nc(-c5cncc(N6CCC6)n5)ccc4nn3)cc21 | 100 to 500 nM |
| C[C@@]1(C#N)COCc2ccc(C(=O)NCc3cc4nc(-n5cc(F)c(N6CCC6)n5)ccc4cn3)cc21 | 100 to 500 nM |
| Cn1cc(-c2nc3cc(CNC(=O)c4ccc5c(c4)[C@](C)(C#N)COC5)ncc3s2)cn1 | > 1000 nM |
